details: siRNA; further: test system not given here
HELM strings list units from the 5' end as sugar, base in round brackets, then linkage (d deoxyribose, r ribose, m 2'-O-methyl, p phosphodiester). Strings are as the collection lists them, not checked against the first reports. ss, as = sense and antisense strand; [fl2r] = 2'-fluoro
Respond with y for target mRNA knockdown values of 60% and above, n for values below.

Study these solved cases before continuing.
Check if target mRNA knockdown >= 60% (inclusive). Item: `RNA1{r(A)p.r(G)p.r(C)p.r(C)p.r(U)p.r(C)p.m(C)p.r(A)p.r(A)p.r(A)p.r(C)p.r(U)p.r(C)p.r(C)p.m(U)p.r(A)p.r(G)p.r(C)p.r(U)p.r(T)p.r(T)}|RNA2{r(A)p.r(G)p.r(C)p.m(U)p.r(A)p.r(G)p.r(G)p.r(A)p.r(G)p.r(U)p.r(U)p.m(U)p.r(G)p.r(G)p.r(A)p.r(G)p.r(G)p.r(C)p.r(U)p.r(T)p.r(T)}$$$RNA1{StrandType:ss}|RNA2{StrandType:as}$`
y

Check if target mRNA knockdown >= 60% (inclusive). Item: `RNA1{r(G)p.r(C)p.r(U)p.r(G)p.[fl2r](U)p.r(A)p.r(A)p.r(C)p.r(C)p.r(U)p.r(C)p.r(G)p.r(G)p.r(A)p.r(G)p.r(A)p.r(G)p.r(U)p.r(U)p.r(T)p.r(T)}|RNA2{r(A)p.r(A)p.r(C)p.r(U)p.r(C)p.r(U)p.r(C)p.r(C)p.r(G)p.r(A)p.r(G)p.r(G)p.r(U)p.[fl2r](U)p.r(A)p.r(C)p.r(A)p.r(G)p.r(C)p.r(T)p.r(T)}$$$RNA1{StrandType:ss}|RNA2{StrandType:as}$`
y

Check if target mRNA knockdown >= 60% (inclusive). Item: `RNA1{[fl2r](A)p.r(A)p.[fl2r](G)p.r(U)p.[fl2r](A)p.r(G)p.[fl2r](U)p.r(C)p.[fl2r](C)p.r(C)p.[fl2r](C)p.r(C)p.[fl2r](U)p.r(U)p.[fl2r](G)p.r(A)p.[fl2r](A)p.r(G)p.r(A)p.r(T)p.r(T)}|RNA2{r(U)p.r(C)p.r(U)p.r(U)p.r(C)p.r(A)p.r(A)p.r(G)p.r(G)p.r(G)p.r(G)p.r(G)p.r(A)p.r(C)p.r(U)p.r(A)p.r(C)p.r(U)p.r(U)p.r(T)p.r(T)}$$$RNA1{StrandType:ss}|RNA2{StrandType:as}$`
n

Note: attention shifts to another entry.
Check if target mRNA knockdown >= 60% (inclusive). Item: `RNA1{r(C)p.r(U)p.r(G)p.r(G)p.r(U)p.r(A)p.r(A)p.r(A)p.r(G)p.r(C)p.r(A)p.r(U)p.r(U)p.r(C)p.r(A)p.r(G)p.r(U)p.r(A)p.r(U)p.d(T)p.d(T)}|RNA2{r(A)p.r(U)p.r(A)p.r(C)p.r(U)p.r(G)p.r(A)p.r(A)p.r(U)p.r(G)p.r(C)p.r(U)p.r(U)p.r(U)p.r(A)p.r(C)p.r(C)p.r(A)p.r(G)p.d(T)p.d(T)}$$$RNA1{StrandType:ss}|RNA2{StrandType:as}$`
y
